Test: Stability of the compound in human liver S9 fraction at 10 uM measured after 1 hr by NADPH by HPLC-MS analysis
Type: ADME, subcellular
Conditions: s9, 1 h
assayEndpoint: Stability

CC(=O)[C@H]1CC[C@H]2[C@@H]3CC[C@H]4C[C@@](O)(CN5CC(C)N(S(=O)(=O)c6ccccc6C(F)(F)F)CC5C)CC[C@]4(C)[C@H]3CC[C@]12C (stereo partly specified): Stable
CC1CN(S(=O)(=O)c2ccccc2C(F)(F)F)C(C)CN1C(=O)c1ccc2c(c1)CC[C@@H]1[C@@H]2CC[C@]2(C)C(=O)CC[C@@H]12 (stereo partly specified): Stable
CC1CN(S(=O)(=O)c2ccccc2C(F)(F)F)C(C)CN1C[C@@]1(O)CC[C@@]2(C)[C@@H](CC[C@@H]3[C@@H]2CC[C@]2(C)C(=O)[C@H](F)C[C@@H]32)C1 (stereo partly specified): Stable
CC1CN(S(=O)(=O)c2ccccc2C(F)(F)F)C(C)CN1C[C@@]1(O)CC[C@@]2(C)[C@@H](CC[C@@H]3[C@@H]2CC[C@]2(C)C(=O)CC[C@@H]32)C1 (stereo partly specified): Unstable
CC1CN(S(=O)(=O)c2ccccc2C(F)(F)F)C(C)CN1C[C@@]1(O)CC[C@H]2[C@@H](CC[C@@H]3[C@@H]2CC[C@]2(C)C(=O)CC[C@@H]32)C1 (stereo partly specified): Unstable
CC1CN(S(=O)(=O)c2ccccc2C(F)(F)F)C(C)CN1C[C@@]1(O)CC[C@@]2(C)[C@@H](CC[C@@H]3[C@@H]2CC[C@]2(C)/C(=N/O)CC[C@@H]32)C1 (stereo partly specified): Stable

###

Tested on: LAPC4
Assay: Androgenic activity in human LAPC4 cells expressing androgen receptor assessed as effect on cell proliferation at 1 uM supplemented with fresh medium containing compounds every 3 days for 7 days by MTS assay (reference value: 100%)
Assay type: ADME, cell-based
Settings: lapc4, 168 h
assayEndpoint: Activity (%)

CC1CN(S(=O)(=O)c2ccccc2C(F)(F)F)C(C)CN1C[C@@]1(O)CC[C@@]2(C)[C@@H](CC[C@@H]3[C@@H]2CC[C@]2(C)[C@@H](O)[C@H](F)C[C@@H]32)C1 (stereo not given in full): 142.4
CC1CN(S(=O)(=O)c2ccccc2C(F)(F)F)C(C)CN1CC(O)c1ccc2c(c1)CC[C@@H]1[C@@H]2CC[C@]2(C)C(=O)CC[C@@H]12 (single isomer, unassigned; diastereomer A): 81.9
C#C[C@]1(O)CC[C@H]2[C@@H]3CC[C@H]4C[C@@](O)(CN5CC(C)N(S(=O)(=O)c6ccccc6C(F)(F)F)CC5C)CC[C@]4(C)[C@H]3CC[C@@]21C (stereo not given in full): 81.2
CC1CN(S(=O)(=O)c2ccccc2C(F)(F)F)C(C)CN1C[C@@]1(O)CC[C@@]2(C)[C@@H](CC[C@@H]3[C@@H]2CC[C@@]2(C)[C@H]3CC[C@@]23CO3)C1 (stereo not given in full): 49.3
CC1CN(S(=O)(=O)c2ccccc2C(F)(F)F)C(C)CN1C[C@@]1(O)CC[C@@]2(C)[C@@H](CC[C@@H]3[C@@H]2CC[C@]2(C)C(=O)[C@H](O)C[C@@H]32)C1 (stereo not given in full): 69.3
CC(=O)[C@H]1CC[C@H]2[C@@H]3CC[C@H]4C[C@@](O)(CN5CC(C)N(S(=O)(=O)c6ccccc6C(F)(F)F)CC5C)CC[C@]4(C)[C@H]3CC[C@]12C (stereo not given in full): 27.1
CC1CN(S(=O)(=O)c2ccccc2C(F)(F)F)C(C)CN1C[C@@]1(O)CC[C@@]2(C)[C@@H](CC[C@@H]3[C@@H]2CC[C@]2(C)[C@@H](O)CC[C@@H]32)C1 (stereo not given in full): 31.3
CC1CN(S(=O)(=O)c2ccccc2C(F)(F)F)C(C)CN1C[C@@]1(O)CC[C@@]2(C)[C@@H](CC[C@@H]3[C@@H]2CC[C@]2(C)[C@@H](O)[C@H](O)C[C@@H]32)C1 (stereo not given in full): 43.8
CC1CN(S(=O)(=O)c2ccccc2C(F)(F)F)C(C)CN1C[C@@]1(O)CC[C@@]2(C)[C@@H](CC[C@@H]3[C@@H]2CC[C@]2(C)C(=O)[C@H](F)C[C@@H]32)C1 (stereo not given in full): 126.6
CC1CN(S(=O)(=O)c2ccccc2C(F)(F)F)C(C)CN1C[C@@]1(O)CC[C@H]2[C@@H](CC[C@@H]3[C@@H]2CC[C@]2(C)C(=O)CC[C@@H]32)C1 (stereo not given in full): 63.1
